Source listed as patent US12338229B2.

- protocol-notes: in vivo
- recorded-conditions: CD-1, mouse, ip
readout-type: AUC(0-inf) (µg·h/mL)

(A) COc1cccc(/C=C2\CN(CCC(C)C)C/C(=C\c3cccc(OC)c3)C2=O)c1 [Compound 10-2]
(B) COc1ccccc1/C=C1\CN(CCC(C)C)C/C(=C\c2ccccc2OC)C1=O [Compound 10-1]
Query block: Sorting ascending by AUC(0-inf), which comes first: A or B ? Refer to your chosen item by its label in the answer.
Result block: A

---

- protocol-notes: in vivo
- recorded-conditions: CD-1, mouse, po
readout-type: Cmax (ng/mL)

(I) COc1cccc(/C=C2\CN(CCC(C)C)C/C(=C\c3cccc(OC)c3)C2=O)c1
(II) COc1ccccc1/C=C1\CN(CCC(C)C)C/C(=C\c2ccccc2OC)C1=O
Query block: Kindly identify the item with the lower Cmax figure among these two: I and II Indicate which entry you chose by stating its label.
Result block: II
(II: 53.2 ng/mL, I: 182 ng/mL)

---

- protocol-notes: in vivo
- recorded-conditions: CD-1, mouse, ip, Terminal phase t1/2
readout-type: half-life (h)

[[record]]
molecule = "COc1cccc(/C=C2\\CN(CCC(C)C)C/C(=C\\c3cccc(OC)c3)C2=O)c1 [Compound 10-2]"
recorded_result = 15.9

[[record]]
molecule = "COc1ccccc1/C=C1\\CN(CCC(C)C)C/C(=C\\c2ccccc2OC)C1=O [Compound 10-1]"
recorded_result = 18.1


---

- protocol-notes: in vivo
- recorded-conditions: CD-1, mouse, ip
readout-type: Cmax (ng/mL)

[[record]]
chemical_structure = "COc1cccc(/C=C2\\CN(CCC(C)C)C/C(=C\\c3cccc(OC)c3)C2=O)c1"
readout_type = "Cmax"
recorded_result = 463

[[record]]
chemical_structure = "COc1ccccc1/C=C1\\CN(CCC(C)C)C/C(=C\\c2ccccc2OC)C1=O"
readout_type = "Cmax"
recorded_result = 357


---

- protocol-notes: in vivo
- recorded-conditions: CD-1, mouse, po
readout-type: AUC(0-inf) (ng·h/mL)

[[record]]
compound = "COc1ccccc1/C=C1\\CN(CCC(C)C)C/C(=C\\c2ccccc2OC)C1=O [Compound 10-1]"
endpoint_unit = "ng·h/mL"
recorded_result = 113

[[record]]
compound = "COc1cccc(/C=C2\\CN(CCC(C)C)C/C(=C\\c3cccc(OC)c3)C2=O)c1 [Compound 10-2]"
endpoint_unit = "ng·h/mL"
recorded_result = 135


---

- protocol-notes: in vivo
- recorded-conditions: CD-1, mouse, ip
readout-type: AUC(0-t) (ng·h/mL)

(P) COc1ccccc1/C=C1\CN(CCC(C)C)C/C(=C\c2ccccc2OC)C1=O
(Q) COc1cccc(/C=C2\CN(CCC(C)C)C/C(=C\c3cccc(OC)c3)C2=O)c1
Query block: Lab log: flag the item ( P or Q ) with the smaller AUC(0-t) figure. Provide the label of your selected option as the answer.
Result block: Q
